- Test system: COLO 205 colon
- TEST NAME: NCI tumour cell line growth inhibition, 48 h
TGI values for the compounds below.
QUANTITY: TGI

{"columns": ["COMPOUND", "ASSAYED SYSTEM", "QUANTITY", "ASSAY VALUE"],
 "data": [
  ["CC(C)[C@@](O)(c1ccc2cc(OC(F)F)c(OC(F)F)cc2c1)c1cn[nH]n1", "COLO 205 colon", "TGI", "35.1 µM"],
  ["O=C1/C(=C/c2ccc(O)cc2)CCc2ccc([N+](=O)[O-])cc21", "COLO 205 colon", "TGI", "> 100 µM"],
  ["COc1ccc(CCN(CC(=O)N(CC(N)=O)C2CCC[C@@H]2OCc2ccccc2)C(=O)CN(C(=O)CN(CCc2ccc(Cl)cc2)C(=O)CN(C(=O)CN(C)Cc2ccccc2F)[C@H](C)C2CCCCC2)[C@H](C)C2CCCCC2)cc1OC (some centres undefined)", "COLO 205 colon", "TGI", "2.4 µM"],
  ["Clc1cc(Cl)c(OCCCCCCN2CCNCC2)c(Cl)c1", "COLO 205 colon", "TGI", "3.58 µM"],
  ["COc1cc([N+](=O)[O-])c(OC)cc1-c1nc2sc(C)cn2c1/C(N)=N/C(=N)N", "COLO 205 colon", "TGI", "> 100 µM"],
  ["CCCCN1C(=O)c2c(Br)sc(Br)c2C1=O", "COLO 205 colon", "TGI", "39.1 µM"],
  ["O=c1cc(NNCc2ccccc2)[nH]c(=O)[nH]1", "COLO 205 colon", "TGI", "> 100 µM"],
  ["CSc1nc2nn(Cc3ccccc3)cc2c(=O)[nH]1", "COLO 205 colon", "TGI", "> 100 µM"],
  ["COc1cc2c(c(O)c1OC)C(=O)[C@@H]1CCC(=O)N1C2c1ccccc1 (some centres undefined)", "COLO 205 colon", "TGI", "> 100 µM"],
  ["CC1(CO)COS(=O)OC1 (centres undefined)", "COLO 205 colon", "TGI", "> 100 µM"],
  ["N#CC1=C(N)NC(=S)NC12Nc1ccccc1S2 (centres undefined)", "COLO 205 colon", "TGI", "82.6 µM"],
  ["CC(=O)OCC1OC(c2c(OC(C)=O)cc(C)c3c(=O)cc(/C(C(C)=O)=C(\\C)O)oc23)C(OC(C)=O)C(OC(C)=O)C1OC(C)=O (centres undefined)", "COLO 205 colon", "TGI", "> 100 µM"],
  ["O=[N+]([O-])c1ccc(C(Cl)C(Cl)c2ccc(C(Cl)C(Cl)c3ccc([N+](=O)[O-])cc3[N+](=O)[O-])cc2)c([N+](=O)[O-])c1 (centres undefined)", "COLO 205 colon", "TGI", "1.99 µM"],
  ["CCOC(=O)C1=C(C)NC2=C(C(=O)N(c3ccccc3)C2c2ccccc2)C1c1ccccc1 (centres undefined)", "COLO 205 colon", "TGI", "33.5 µM"],
  ["C=C1C[C@@H]2O[C@H]3[C@H]4[C@@H](C[C@@H](C)[C@@H](OC(C)=O)[C@H]42)[C@@H](C)CO[C@@]3(C)[C@H](OC(=O)CCCCCCC)C[C@H]1O", "COLO 205 colon", "TGI", "29.9 µM"],
  ["CC(C)(C)CC(C)(C)c1ccc(O)c(Cc2ccc(Cl)cc2Cl)c1", "COLO 205 colon", "TGI", "3.15 µM"],
  ["C/C=C/C=C\\C=C/C(O)C(C)C(CCC(C)C1OC(=O)C=CC1C)OP(=O)(O)O (centres undefined)", "COLO 205 colon", "TGI", "0.788 µM"],
  ["CCCC1CC(=O)NC(=O)C1C(=O)OC(C)(C)C (centres undefined)", "COLO 205 colon", "TGI", "> 100 µM"],
  ["c1cc2nnsc2s1", "COLO 205 colon", "TGI", "> 100 µM"],
  ["COc1cc(N2C(=O)[C@H](c3ccccc3)C2c2ccc(SC)cc2)cc(OC)c1OC (some centres undefined)", "COLO 205 colon", "TGI", "1.46 µM"],
  ["O=C(O)c1ccccc1CC1Cc2cc3c(cc2C1)CCC3", "COLO 205 colon", "TGI", "> 100 µM"],
  ["CC(=O)O[C@H]1CC[C@H]2[C@@H]3CCC4=CC(=O)C=C[C@]4(O)[C@H]3CC[C@]12C", "COLO 205 colon", "TGI", "> 55.6 µM"],
  ["Oc1c(Cl)cc(Cl)cc1/C=N/Nc1nnc(N/N=C/c2cc(Cl)cc(Cl)c2O)c2ccccc12", "COLO 205 colon", "TGI", "> 100 µM"],
  ["CC(NCc1c(O)ccc2ccc(=O)oc12)C(=O)O (centres undefined)", "COLO 205 colon", "TGI", "> 100 µM"],
  ["O=C(NCCCl)Nc1cccnc1", "COLO 205 colon", "TGI", "51.3 µM"],
  ["COc1cc2cc(C(=O)N3CC(CCl)c4ccc([N+](=O)[O-])cc43)[nH]c2c(OC)c1OC (centres undefined)", "COLO 205 colon", "TGI", "> 100 µM"],
  ["O=[N+]([O-])c1ccc(N/N=C2/CC3=C2CCCCCCCCCC3)c([N+](=O)[O-])c1", "COLO 205 colon", "TGI", "> 100 µM"],
  ["COc1ccccc1CC(C)N (centres undefined)", "COLO 205 colon", "TGI", "> 100 µM"],
  ["CCOC(=O)CCC(C(=O)OCC)n1nc2ccc(Nc3c(C)[n+]([O-])c4cc(F)c(OCC)cc4[n+]3[O-])cc2n1 (centres undefined)", "COLO 205 colon", "TGI", "> 100 µM"],
  ["CN(C)CCC(CCN(C)C)=NO", "COLO 205 colon", "TGI", "> 100 µM"],
  ["O=c1[nH]c(N/N=C\\C(=N/Nc2nc3ccccc3c(=O)[nH]2)C(O)C(O)C(O)CO)nc2ccccc12 (centres undefined)", "COLO 205 colon", "TGI", "> 100 µM"],
  ["CC[C@]12C=CCN3CCC4(c5cc([C@@]6(C(=O)OC)CC7CN(CCc8c6[nH]c6ccccc86)C[C@@H]6CCCC[C@H]76)c(OC)cc5N(C)C4[C@](O)(C(=O)OC)C1OC(C)=O)[C@@H]32 (some centres undefined)", "COLO 205 colon", "TGI", "< 0.01 µM"],
  ["CCOC(=O)Cn1c2ccc(Br)cc2c2nc3ccccc3nc21", "COLO 205 colon", "TGI", "> 100 µM"],
  ["C=C1C(=O)O[C@H]2[C@H](OC(C)=O)[C@@H](C)CCCC3(C)OC3CCC3(CO3)[C@H](O)C[C@@H]12 (some centres undefined)", "COLO 205 colon", "TGI", "65.6 µM"],
  ["O=C(c1ccccc1Cl)n1oc2ccccc2c1=O", "COLO 205 colon", "TGI", "> 100 µM"],
  ["CSc1ccc2c(cc1=O)[C@@H](NC(=O)c1ccc(Cl)cc1)CCc1cc(O)c(O)c(O)c1-2", "COLO 205 colon", "TGI", "> 100 µM"],
  ["O=C1CC(c2ccccc2)Cc2nc3ccc(Br)cc3cc21 (centres undefined)", "COLO 205 colon", "TGI", "1.8 µM"],
  ["N#Cc1ccc(-c2nc3c(N)nc(-c4ccccc4)nc3o2)cc1", "COLO 205 colon", "TGI", "> 100 µM"],
  ["CC1(C)N=C(N)N=C(N)N1c1ccc(OCCCNC(=O)Nc2cccc(S(=O)(=O)F)c2)c(Cl)c1", "COLO 205 colon", "TGI", "> 100 µM"]
]}

Reference source: PubChem BioAssay (NCI)
